The measured values listed here are drawn from ChEMBL document CHEMBL4371076.

- test: Toxicity in CD1 mouse model of formalin-induced nociception assessed as hypothermia at 30 mg/kg, po
- Format: organism-based
- cond: in vivo
assayReadout: Activity

Cn1cc(-c2ccc(C(F)(F)F)cc2)c2cc(F)c(C(=O)NS(=O)(=O)C3CC3)cc21; Non-Toxic
Cn1cc(-c2ccc(C(F)F)cc2)c2cc(F)c(C(=O)NS(=O)(=O)C3CC3)cc21; Non-Toxic
CC(C)COc1ccc(-c2cn(C)c3cc(C(=O)NS(C)(=O)=O)c(F)cc23)cn1; Non-Toxic
CC(C)COc1ncc(-c2cn(C)c3cc(C(=O)NS(=O)(=O)C4CC4)c(F)cc23)cc1Cl; Non-Toxic
CC(C)COc1ncc(-c2nn(C)c3cc(C(=O)NS(C)(=O)=O)ccc23)cc1Cl; Toxic

Here is another compound to look at.
Item: CC(C)COc1ccc(-c2cn(C)c3cc(C(=O)NS(=O)(=O)C4CC4)c(F)cc23)cn1 | Activity: Non-Toxic

* * *

- test: Permeability from apical to basolateral side in human Caco2 cells
- Assay type: ADME, cell-based
- cond: Caco-2, read-out: permeability
Recorded Papp A→B for the following molecules
Please state the figure in ×10⁻⁶ cm/s; there is no need to write the unit.

Reported Papp A→B for CC(C)COc1ccc(-c2cn(C)c3cc(C(=O)NS(=O)(=O)C4CC4)c(F)cc23)cn1 was 12

Entry Cn1cc(-c2ccc(C(F)F)cc2)c2cc(F)c(C(=O)NS(=O)(=O)C3CC3)cc21 ; Papp A→B = 8.1

* * *

- measuredOn: Sodium channel protein type 5 subunit alpha (Homo sapiens)
- Sequence (Q14524 whole entry): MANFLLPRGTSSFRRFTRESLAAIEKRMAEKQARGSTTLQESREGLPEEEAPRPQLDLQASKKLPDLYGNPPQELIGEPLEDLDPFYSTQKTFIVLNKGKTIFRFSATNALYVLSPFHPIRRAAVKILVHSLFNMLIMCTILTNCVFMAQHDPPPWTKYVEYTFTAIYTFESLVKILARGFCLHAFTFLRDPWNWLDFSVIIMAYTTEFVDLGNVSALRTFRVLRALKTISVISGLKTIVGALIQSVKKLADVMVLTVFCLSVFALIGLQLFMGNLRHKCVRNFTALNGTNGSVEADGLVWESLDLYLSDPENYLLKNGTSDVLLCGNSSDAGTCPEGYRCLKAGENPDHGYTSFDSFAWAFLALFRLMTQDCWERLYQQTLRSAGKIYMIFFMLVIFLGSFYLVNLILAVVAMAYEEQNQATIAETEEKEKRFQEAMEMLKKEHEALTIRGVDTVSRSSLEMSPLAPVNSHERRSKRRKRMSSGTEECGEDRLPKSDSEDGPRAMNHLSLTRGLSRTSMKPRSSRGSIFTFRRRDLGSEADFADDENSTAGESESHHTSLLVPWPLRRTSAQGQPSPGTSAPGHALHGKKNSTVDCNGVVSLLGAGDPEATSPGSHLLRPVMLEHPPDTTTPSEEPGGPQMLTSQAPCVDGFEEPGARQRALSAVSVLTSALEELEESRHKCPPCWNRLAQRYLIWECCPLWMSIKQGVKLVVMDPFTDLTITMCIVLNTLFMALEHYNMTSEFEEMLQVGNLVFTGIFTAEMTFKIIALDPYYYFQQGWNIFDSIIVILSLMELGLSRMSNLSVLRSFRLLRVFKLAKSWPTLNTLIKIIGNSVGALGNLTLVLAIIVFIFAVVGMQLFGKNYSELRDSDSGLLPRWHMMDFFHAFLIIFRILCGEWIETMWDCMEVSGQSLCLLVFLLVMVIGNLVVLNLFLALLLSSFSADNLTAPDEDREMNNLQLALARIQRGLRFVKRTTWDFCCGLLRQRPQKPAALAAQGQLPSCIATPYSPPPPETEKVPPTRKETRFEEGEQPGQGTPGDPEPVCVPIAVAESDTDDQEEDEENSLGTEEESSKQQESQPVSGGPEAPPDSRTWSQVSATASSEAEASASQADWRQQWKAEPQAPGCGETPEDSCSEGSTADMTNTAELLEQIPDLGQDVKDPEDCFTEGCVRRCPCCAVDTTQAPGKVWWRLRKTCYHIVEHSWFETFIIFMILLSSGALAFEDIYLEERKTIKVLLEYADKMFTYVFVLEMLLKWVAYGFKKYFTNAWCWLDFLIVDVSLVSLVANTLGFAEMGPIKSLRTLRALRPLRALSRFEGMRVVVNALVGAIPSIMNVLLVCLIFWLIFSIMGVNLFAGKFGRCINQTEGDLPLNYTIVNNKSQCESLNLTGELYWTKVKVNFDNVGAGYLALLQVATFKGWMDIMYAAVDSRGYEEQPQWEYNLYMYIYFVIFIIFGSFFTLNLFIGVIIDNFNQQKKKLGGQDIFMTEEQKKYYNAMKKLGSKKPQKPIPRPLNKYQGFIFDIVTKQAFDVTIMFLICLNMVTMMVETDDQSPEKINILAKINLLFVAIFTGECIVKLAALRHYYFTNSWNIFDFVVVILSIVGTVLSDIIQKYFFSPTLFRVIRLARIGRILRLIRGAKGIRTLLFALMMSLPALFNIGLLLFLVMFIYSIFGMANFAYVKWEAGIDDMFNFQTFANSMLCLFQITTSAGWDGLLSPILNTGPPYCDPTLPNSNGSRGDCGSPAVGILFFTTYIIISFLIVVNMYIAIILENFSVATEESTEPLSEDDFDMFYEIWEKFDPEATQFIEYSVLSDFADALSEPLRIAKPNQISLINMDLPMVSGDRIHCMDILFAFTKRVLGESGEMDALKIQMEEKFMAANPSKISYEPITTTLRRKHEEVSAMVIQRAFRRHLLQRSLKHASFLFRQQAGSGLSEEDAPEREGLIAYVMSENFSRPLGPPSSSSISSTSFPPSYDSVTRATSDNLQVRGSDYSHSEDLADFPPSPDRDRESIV
- test: Inhibition of human Nav1.5 expressed in HEK293 cells after 600 secs at -50 mV holding potential by ion works barracuda population patch clamp method
In plain terms, low IC50, meaning strictly below 10 µM, gives rule met, and everything else gives rule not met.

Cn1nc(-c2ccc(C(F)(F)F)cc2)c2cc(F)c(C(=O)NS(=O)(=O)C3CC3)cc21; rule met
CC(C)COc1ncc(-c2cn(C(C)C)c3cc(C(=O)NS(C)(=O)=O)ccc23)cc1Cl; rule met

Query block: Is it true that IC50 reported for Cc1cccc(-c2cn(C)c3cc(C(=O)NS(C)(=O)=O)ccc23)c1 is less than 10 µM?
Result block: rule not met

Query block: Is it true that IC50 reported for Cc1ccc(-c2cn(C)c3cc(C(=O)NS(C)(=O)=O)ccc23)cc1 is less than 10 µM?
Result block: rule not met

Query block: A record lists Cn1cc(-c2ccc(C(F)F)cc2)c2ccc(C(=O)NS(C)(=O)=O)cc21 . Is its IC50 below 10 µM?
Result block: rule not met

Query block: Given the entry CN(C)S(=O)(=O)NC(=O)c1ccc2c(-c3ccc(C(F)(F)F)cc3)cn(C)c2c1 , would its reported IC50 be below 10 µM?
Result block: rule not met

Query block: hey, is IC50 for CC(C)COc1ncc(-c2cn(C)c3cc(C(=O)NS(C)(=O)=O)ccc23)cc1Cl lower than 10 µM or not?
Result block: rule not met

Query block: Find out if reported IC50 for CC(C)COc1ncc(-c2cn(C)c3cc(C(=O)NS(C)(=O)=O)ccc23)cc1C#N is less than 10 µM
Result block: rule not met

Query block: Field: below-cutoff. Rule: recorded IC50 strictly less than 10 µM. Subject: Cn1cc(-c2ccccc2)c2ccc(C(=O)NS(C)(=O)=O)cc21
Result block: rule not met

Query block: Hello, is IC50 of the following compound strictly smaller than 10 µM? CC(C)COc1ccc(-c2cn(C)c3cc(C(=O)NS(C)(=O)=O)c(F)cc23)cn1
Result block: rule not met

Query block: Check if IC50 falls below 10 µM for CC(C)COc1ccc(-c2nn(C)c3cc(C(=O)NS(=O)(=O)C4CC4)c(F)cc23)cn1 .
Result block: rule not met

Query block: Say whether its IC50 is strictly beneath 10 µM. Entry: CC(C)COc1ccc(-c2nn(C)c3cc(C(=O)NS(C)(=O)=O)c(F)cc23)cn1
Result block: rule not met

* * *

- test: Fraction unbound in mouse trigeminal ganglia neuron tissue
- Format: ADME, tissue-based, Trigeminal ganglion
assayReadout: fraction unbound
Answer field: number only, no words.

CC(C)COc1ncc(-c2cn(C)c3cc(C(=O)NS(C)(=O)=O)ccc23)cc1Cl; 0.035

fraction unbound measured on CC(C)COc1ccc(-c2cn(C)c3cc(C(=O)NS(C)(=O)=O)c(F)cc23)cn1 = 0.069

* * *

molecules and their reported concentration
- test: Plasma concentration in CD1 mouse model of CFA-induced thermal hyperalgesia at 3 to 30 mg/kg, ip
- Type: ADME, organism-based
- cond: in vivo
Reply numerically in µM, unit not repeated.

CC(C)COc1ncc(-c2cn(C)c3cc(C(=O)NS(C)(=O)=O)ccc23)cc1Cl; 63

Now for another entry.
In plain terms, CC(C)COc1ccc(-c2cn(C)c3cc(C(=O)NS(C)(=O)=O)c(F)cc23)cn1 has a documented concentration of 38

* * *

- test: Metabolic stability in rat liver microsomes assessed as parent compound remaining at 0.5 uM after 10 mins
- Assay type: ADME, Microsome
- cond: read-out: Stability
assayReadout: remaining at 10 min, 0.5 µM (%)
Output spec: scalar in %, unitless text.

CC(C)COc1ncc(-c2nn(C)c3cc(C(=O)NS(C)(=O)=O)ccc23)cc1Cl; 100
Cn1cc(-c2ccc(C(F)(F)F)cc2)c2ccc(C(=O)NS(=O)(=O)C3CC3)cc21; 92
Cn1nc(-c2ccc(C(F)(F)F)cc2)c2cc(F)c(C(=O)NS(=O)(=O)C3CC3)cc21; 100
Cn1cc(-c2cnc(OCC3CC3)c(Cl)c2)c2ccc(C(=O)NS(=O)(=O)C3CC3)cc21; 77
CC(C)Cc1ccc(-c2cn(C)c3cc(C(=O)NS(C)(=O)=O)ccc23)cc1; 94
Cn1cc(-c2ccc(C(F)(F)F)cc2)c2cc(F)c(C(=O)NS(C)(=O)=O)cc21; 99
CC(C)COc1ccc(-c2nn(C)c3cc(C(=O)NS(=O)(=O)C4CC4)c(F)cc23)cn1; 88
Cn1cc(-c2ccc(C(F)(F)F)cc2)c2ccc(C(=O)NS(C)(=O)=O)cc21; 74

Continue with the next molecule.
Noted for CC(C)COc1ncc(-c2cn(C)c3cc(C(=O)NS(C)(=O)=O)ccc23)cc1Cl : its remaining at 10 min, 0.5 µM reads 66

* * *

- test: Permeability from basolateral to apical side in human Caco2 cells
- Format: ADME, cell-based
- cond: Caco-2, read-out: permeability
assayReadout: Papp B→A
Write the quantity with the unit trailing the number.

Worked examples, 8 compounds total:
CC(C)COc1ncc(-c2cn(C)c3cc(C(=O)NS(C)(=O)=O)ccc23)cc1Cl; 16.8 ×10⁻⁶ cm/s
Cn1cc(-c2ccc(C(F)F)cc2)c2cc(F)c(C(=O)NS(=O)(=O)C3CC3)cc21; 19.5 ×10⁻⁶ cm/s
CC(C)Cc1ccc(-c2cn(C)c3cc(C(=O)NS(C)(=O)=O)ccc23)cc1; 7.8 ×10⁻⁶ cm/s
Cn1nc(-c2ccc(C(F)(F)F)cc2)c2cc(F)c(C(=O)NS(=O)(=O)C3CC3)cc21; 31.2 ×10⁻⁶ cm/s
Cn1cc(-c2ccc(C(F)(F)F)cc2)c2cc(F)c(C(=O)NS(=O)(=O)C3CC3)cc21; 8.6 ×10⁻⁶ cm/s
Cn1cc(-c2ccc(C(F)(F)F)cc2)c2cc(F)c(C(=O)NS(C)(=O)=O)cc21; 12.5 ×10⁻⁶ cm/s
CC(C)COc1ccc(-c2cn(C)c3cc(C(=O)NS(=O)(=O)C4CC4)c(F)cc23)cn1; 18.9 ×10⁻⁶ cm/s
CC(C)COc1ccc(-c2cn(C)c3cc(C(=O)NS(C)(=O)=O)c(F)cc23)cn1; 18.6 ×10⁻⁶ cm/s

Entry CC(C)COc1ncc(-c2cn(C)c3cc(C(=O)NS(C)(=O)=O)c(F)cc23)cc1Cl — recorded Papp B→A = 6.7 ×10⁻⁶ cm/s

According to the records, this compound CC(C)COc1ncc(-c2cn(C)c3cc(C(=O)NS(=O)(=O)C4CC4)c(F)cc23)cc1Cl displays Papp B→A of 10.2 ×10⁻⁶ cm/s

In plain terms, Cn1cc(-c2ccc(C(F)(F)F)cc2)c2ccc(C(=O)NS(C)(=O)=O)cc21 has a documented Papp B→A of 7.6 ×10⁻⁶ cm/s

// Papp B→A lookup, compound = Cn1cc(-c2cnc(OCC3CC3)c(Cl)c2)c2ccc(C(=O)NS(=O)(=O)C3CC3)cc21 , result: 11.4 ×10⁻⁶ cm/s

* * *

Item-by-item account of pIC50
- measuredOn: Sodium channel protein type 9 subunit alpha (Homo sapiens, UniProt Q15858)
- Sequence (Q15858 whole entry): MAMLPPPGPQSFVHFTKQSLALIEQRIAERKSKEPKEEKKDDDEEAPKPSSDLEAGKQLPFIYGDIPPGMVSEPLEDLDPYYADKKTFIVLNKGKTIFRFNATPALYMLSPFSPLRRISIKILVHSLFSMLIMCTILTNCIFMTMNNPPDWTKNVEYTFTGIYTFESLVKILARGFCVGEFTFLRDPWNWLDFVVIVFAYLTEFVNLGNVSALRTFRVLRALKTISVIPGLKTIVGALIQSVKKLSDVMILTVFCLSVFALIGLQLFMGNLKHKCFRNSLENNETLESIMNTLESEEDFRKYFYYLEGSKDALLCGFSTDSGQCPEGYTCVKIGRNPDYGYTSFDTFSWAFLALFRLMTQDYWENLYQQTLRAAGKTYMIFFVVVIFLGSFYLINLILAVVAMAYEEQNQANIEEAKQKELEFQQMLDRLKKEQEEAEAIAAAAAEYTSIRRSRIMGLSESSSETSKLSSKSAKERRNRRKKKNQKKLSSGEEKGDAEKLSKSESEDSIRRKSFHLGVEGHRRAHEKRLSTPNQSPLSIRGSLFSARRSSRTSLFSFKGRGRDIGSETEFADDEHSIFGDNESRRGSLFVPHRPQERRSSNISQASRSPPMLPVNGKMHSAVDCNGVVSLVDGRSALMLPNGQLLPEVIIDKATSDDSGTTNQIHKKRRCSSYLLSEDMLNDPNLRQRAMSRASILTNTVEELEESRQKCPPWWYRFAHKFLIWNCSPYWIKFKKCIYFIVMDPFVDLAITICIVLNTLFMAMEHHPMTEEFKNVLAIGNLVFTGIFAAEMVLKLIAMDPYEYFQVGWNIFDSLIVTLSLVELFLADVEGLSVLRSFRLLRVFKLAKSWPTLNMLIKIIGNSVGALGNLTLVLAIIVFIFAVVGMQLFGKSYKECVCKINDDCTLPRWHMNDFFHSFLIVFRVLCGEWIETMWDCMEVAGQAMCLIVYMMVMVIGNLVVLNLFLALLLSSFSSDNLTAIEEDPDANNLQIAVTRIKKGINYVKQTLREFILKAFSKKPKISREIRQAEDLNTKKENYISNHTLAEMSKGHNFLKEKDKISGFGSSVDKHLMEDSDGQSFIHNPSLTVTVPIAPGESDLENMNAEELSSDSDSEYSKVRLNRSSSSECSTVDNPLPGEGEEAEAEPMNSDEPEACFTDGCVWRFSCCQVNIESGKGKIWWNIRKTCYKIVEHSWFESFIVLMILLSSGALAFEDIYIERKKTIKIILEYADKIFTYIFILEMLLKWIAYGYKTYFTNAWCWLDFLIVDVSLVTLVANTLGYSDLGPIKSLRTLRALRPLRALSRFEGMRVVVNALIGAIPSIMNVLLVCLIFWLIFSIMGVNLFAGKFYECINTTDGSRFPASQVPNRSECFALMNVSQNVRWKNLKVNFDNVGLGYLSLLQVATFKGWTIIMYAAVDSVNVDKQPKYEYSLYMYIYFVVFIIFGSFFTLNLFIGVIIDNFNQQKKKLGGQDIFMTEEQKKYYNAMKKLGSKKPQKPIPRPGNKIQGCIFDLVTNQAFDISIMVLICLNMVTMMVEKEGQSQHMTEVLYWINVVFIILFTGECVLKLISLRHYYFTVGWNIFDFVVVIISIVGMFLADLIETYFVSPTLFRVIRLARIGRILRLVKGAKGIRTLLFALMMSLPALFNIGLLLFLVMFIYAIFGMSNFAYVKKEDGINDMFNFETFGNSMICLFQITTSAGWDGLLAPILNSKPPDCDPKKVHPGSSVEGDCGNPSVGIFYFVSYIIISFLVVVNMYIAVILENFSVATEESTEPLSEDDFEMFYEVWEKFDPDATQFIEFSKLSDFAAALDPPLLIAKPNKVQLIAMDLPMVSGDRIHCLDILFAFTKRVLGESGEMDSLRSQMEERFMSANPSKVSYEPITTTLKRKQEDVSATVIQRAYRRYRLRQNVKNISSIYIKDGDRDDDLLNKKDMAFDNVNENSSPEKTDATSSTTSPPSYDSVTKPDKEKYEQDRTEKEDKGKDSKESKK
- test: Inhibition of recombinant human Nav1.7 expressed in HEK293 cells at -70 mV holding potential by patch clamp electrophysiology method
- Assay type: cell-based
When answering, recall that pIC50 equals minus log10 of the concentration in mol/L, and write that number alone.

Worked examples, 5 compounds total:
Cn1cc(-c2ccc(C(F)(F)F)cc2)c2ccc(C(=O)NS(=O)(=O)C3CC3)cc21; 8.10
Cn1cc(-c2ccc(C(F)(F)F)cc2)c2cc(F)c(C(=O)NS(C)(=O)=O)cc21; 7.89
CC(C)COc1ncc(-c2nn(C)c3cc(C(=O)NS(C)(=O)=O)ccc23)cc1Cl; 7.96
Cn1cc(-c2ccc(C(F)(F)F)cc2)c2cc(F)c(C(=O)NS(=O)(=O)C3CC3)cc21; 8.30
Cn1cc(-c2ccc(C(F)(F)F)cc2)c2ccc(C(=O)NS(C)(=O)=O)cc21; 7.02

Continue with the next compound.
Sample CC(C)COc1ccc(-c2nn(C)c3cc(C(=O)NS(=O)(=O)C4CC4)c(F)cc23)cn1 ; pIC50 observed: 7.37
